From: PubChem BioAssay (NCI)

This listing pairs compounds with measured GI50.
Tested on: SF-539 CNS
experimental details: NCI tumour cell line growth inhibition, 48 h

{"columns": ["record smiles", "GI50"],
 "data": [
  ["Cc1ccc(O)c(NC(=O)c2cccc(Nc3ccnc(C(F)(F)F)c3)c2)c1", "12500 nM"],
  ["CNC(=O)c1ccc(N2C(=S)N(c3cnc(C#N)c(C(F)(F)F)c3)C(=O)C23CCC3)cc1F", "> 100000 nM"],
  ["Cc1c(C)n(CCCN2CCN(C)CC2)c2ccc(Oc3cccc(C(=O)N4CCN(CCc5ccc(F)cc5)CC4)c3)cc12", "1630 nM"],
  ["CCCCCCCCCCCCCCCC1=NCC[N+]1(CCO)CCO", "1910 nM"]
]}

====

System: KM12 colon
experimental details: NCI tumour cell line growth inhibition, 48 h

{"columns": ["molecule", "TGI"],
 "data": [
  ["COc1cccc(/C=N/n2c(Cc3ccccc3)n[nH]c2=O)c1", "> 100 µM"],
  ["C=C[C@@H](C)[C@]1(C(=O)OC)CCCC12OCCO2", "> 100 µM"],
  ["Cc1onc(-c2ccccc2)c1C(=O)N/N=C/c1cc(Cl)cc(Cl)c1O", "> 100 µM"],
  ["COc1cc(C(=O)NC2CCc3cc(OC)c(OC)c(OC)c3-c3ccc(OC)c(=O)cc32)cc(OC)c1OC (stereo not given)", "0.801 µM"],
  ["O=C(C(=O)c1cc2ccccc2[nH]1)c1cc2ccccc2[nH]1", "> 347 µM"],
  ["Cc1ccc(CC(Cc2ccccc2C)C(=O)O)c(C(=O)O)c1 (stereo not given)", "> 100 µM"],
  ["C=CC(=O)Nc1ccc(NC(=O)C=C)c2c1C(=O)c1ccccc1C2=O", "29.1 µM"],
  ["O=C(CSCC(=O)N/N=C/c1ccc2c(c1)OCO2)N/N=C/c1ccc2c(c1)OCO2", "> 100 µM"],
  ["CC(=O)O[C@@H]1C2CCC3C(CC[C@@]4(C)C3CC[C@@H]4C(C)N(C)C)[C@@]2(C)CC[C@@H]1NC(=O)C=C(C)C (stereo not given in full)", "9.5 µM"],
  ["Fc1ccc(-c2c(-c3ccncc3)nc3n2CCS3)cc1", "> 25 µM"]
]}

====

Tested on: CCRF-CEM leukemia
experimental details: NCI tumour cell line growth inhibition, 48 h
This listing pairs molecules with measured GI50.
reported property: GI50

{"columns": ["molecule", "system name", "observed measurement"],
 "data": [
  ["CC(C)(C)C(=O)OCOP(=O)(NCc1ccccc1)C1CCCN(O)C1=O (centres undefined)", "CCRF-CEM leukemia", "0.558 µM"],
  ["CCc1ccc(Oc2c(-c3ccc(OCc4ccc(Cl)cc4)cc3O)n[nH]c2C(F)(F)F)cc1", "CCRF-CEM leukemia", "2.92 µM"],
  ["CNC(=O)c1ccc(N2C(=S)N(c3cnc(C#N)c(C(F)(F)F)c3)C(=O)C23CCC3)cc1F", "CCRF-CEM leukemia", "> 100 µM"],
  ["CC(=O)O[C@@H]1C2CCC3C(CC[C@@]4(C)C3CC[C@@H]4C(C)N(C)C)[C@@]2(C)CC[C@@H]1NC(=O)C=C(C)C (some centres undefined)", "CCRF-CEM leukemia", "2.07 µM"]
]}

====

System: ACHN renal
experimental details: NCI tumour cell line growth inhibition, 48 h; in the data active means GI50 below about 0.43 µM; inactive means the rest
Outcome codes: active, inactive

{"columns": ["compound", "group"],
 "data": [
  ["Cc1ccc(O)c(NC(=O)c2cccc(Nc3ccnc(C(F)(F)F)c3)c2)c1", "inactive"],
  ["COc1cc2c(cc1OC(C)C)[C@H](c1ccc(Cl)cc1)N(c1ccc(N(C)CC3CCC(N4CCN(C)C(=O)C4)CC3)cc1)C(=O)C2 (stereo partly drawn)", "active"],
  ["COc1c/c(=C2\\C=c3ccccc3=N2)[nH]/c1=C\\c1[nH]c(C)cc1C", "active"],
  ["OC(CNc1ccnc2cc(Cl)ccc12)CNc1ccnc2cc(Cl)ccc12", "inactive"],
  ["O=C(NCCCCN1CCOCC1)c1cc2ccccc2o1", "inactive"],
  ["COc1ccccc1Nc1cc(O)c2c(=O)cc(-c3ccccc3)oc2c1", "inactive"],
  ["CC(C)C[C@H](NC(=O)CNC(=O)c1cc(Cl)ccc1Cl)B(O)O", "active"],
  ["COC(=O)[C@@H]1c2cc3c(c(O)c2[C@@H](OC2OC(C)C(OC)C(C)(OC)C2OC)C[C@]1(C)O)C(=O)c1c(O)cc2c(c1C3=O)O[C@H]1O[C@]2(C)[C@H](O)[C@@H](N(C)C)[C@@H]1O (stereo partly drawn)", "active"],
  ["Cc1c(C)n(CCCN2CCN(C)CC2)c2ccc(Oc3cccc(C(=O)N4CCN(CCc5ccc(F)cc5)CC4)c3)cc12", "inactive"],
  ["COc1ccc2ncn(-c3cc(O[C@H](C)c4ccccc4C(F)(F)F)c(C(N)=O)s3)c2c1", "inactive"],
  ["COc1ccc2c(c1)C(=O)c1c-2n(CCCN(C)C)c(=O)c2ccccc12", "active"],
  ["Cc1nn(CNc2ccccc2C(F)(F)F)c(=S)n1/N=C/c1cccc2cccnc12", "inactive"],
  ["Fc1ccc(-c2c(-c3ccncc3)nc3n2CCS3)cc1", "inactive"]
]}

====

This listing pairs compounds with measured GI50.
System: HCT-116 colon
experimental details: NCI tumour cell line growth inhibition, 48 h

{"columns": ["compound", "GI50"],
 "data": [
  ["O=C(CN(/C=C/C(=O)C(F)(F)F)c1ccc(Cl)cc1)c1ccc(Cl)cc1", "4.09 µM"],
  ["CC(=O)O[C@@H]1C2CCC3C(CC[C@@]4(C)C3CC[C@@H]4C(C)N(C)C)[C@@]2(C)CC[C@@H]1NC(=O)C=C(C)C (some centres not stated)", "1.54 µM"],
  ["CC(C)C[C@H](NC(=O)CNC(=O)c1cc(Cl)ccc1Cl)B(O)O", "< 0.0131 µM"],
  ["Oc1c(Cl)cc(Cl)c(Cl)c1CNCCNCc1c(O)c(Cl)cc(Cl)c1Cl", "0.731 µM"],
  ["CC(C)(C)C(=O)OCOP(=O)(NCc1ccccc1)C1CCCN(O)C1=O (configuration not stated)", "2.84 µM"],
  ["C=CN(C(=O)N1CCN(c2cc3c(cc2F)c(=O)c(C(=O)O)cn3C2CC2)CC1)c1nc(-c2ccc(OC)cc2)cs1", "3.42 µM"],
  ["Cc1onc(-c2ccccc2)c1C(=O)N/N=C/c1cc(Cl)cc(Cl)c1O", "4.11 µM"],
  ["CN[C@H]1CN(c2ccc3c(=O)c(C(=O)O)cn(-c4nccs4)c3n2)C[C@@H]1OC", "0.437 µM"],
  ["O=c1c2ccccc2sc2c(NCCCNCCO)nc3ccccc3c12", "1.3 µM"],
  ["COc1ccc2c(c1)C(=O)c1c-2n(CCCN(C)C)c(=O)c2ccccc12", "0.213 µM"],
  ["CCOC(=O)c1cc(C(=O)c2ccc(OC)cc2)n2ccc(/C=C/c3cc[n+](CC(=O)c4ccc(OC)cc4)cc3)cc12", "1.55 µM"],
  ["COc1ccc2ncn(-c3cc(O[C@H](C)c4ccccc4C(F)(F)F)c(C(N)=O)s3)c2c1", "0.125 µM"]
]}

====

Test system: SW-620 colon
experimental details: NCI tumour cell line growth inhibition, 48 h
reported property: TGI

{"columns": ["compound", "observed measurement"],
 "data": [
  ["CC1=N/C(=C/c2ccc3c(c2)OCO3)C(=O)O1", "> 100 µM"],
  ["Cc1ccc(O)c(Cc2nc3ccccc3nc2-c2cccc(Cl)c2)c1", "> 100 µM"],
  ["CC(C)N(C(=O)C12C3C4C5(C#N)C3C1(C#N)C5C42C#N)C(C)C (stereo unspecified)", "> 100 µM"],
  ["C=CCNC(=O)NCCCCC(NC(C)=O)C(=O)NCc1ccccc1 (stereo unspecified)", "> 100 µM"],
  ["C=CCN(c1cc(OC)c(NC(C)=O)cc1[N+](=O)[O-])S(C)(=O)=O", "> 100 µM"],
  ["Cc1ccc(CC2(C(=O)O)Cc3ccc(C)cc3C2)cc1 (stereo unspecified)", "> 100 µM"],
  ["CN=C1Nc2ccccc2C(=O)N2CSCC12 (stereo unspecified)", "> 100 µM"],
  ["CN(C)C(C1=C(O)C(c2ccccc2)N(c2ccccc2)C1=O)N1CCOCC1 (stereo unspecified)", "> 10 µM"],
  ["O=C1NC(=C(Cl)Cl)/C(=N/S(=O)(=O)N2CCCCC2)N1", "4.17 µM"],
  ["COC(=O)CCC(=O)c1ccc2c(c1)CCC2", "> 100 µM"],
  ["COc1cc2c(cc1OC)OC(c1c(OC)ccc(OC)c1O)CC2 (stereo unspecified)", "> 100 µM"]
]}

====

Tested on: CAKI-1 renal
experimental details: NCI tumour cell line growth inhibition, 48 h
This listing pairs compounds with measured TGI.
reported property: TGI

{"columns": ["compound", "observed measurement"],
 "data": [
  ["CCOc1cc(C2CC(c3ccc(NS(=O)(=O)c4cc([N+](=O)[O-])ccc4C)cc3)=NN2S(=O)(=O)c2cc([N+](=O)[O-])ccc2C)ccc1O (stereo not given)", "> 100 µM"],
  ["COC(=O)CCC(=O)c1ccc2c(c1)CCC2", "> 100 µM"],
  ["NS(=O)(=O)OC[C@H]1C[C@@H](Nc2ccnc3cc(-c4cccc(SC(F)(F)F)c4)nn23)[C@H](O)[C@@H]1O", "0.477 µM"],
  ["Cc1nn(CNc2ccccc2C(F)(F)F)c(=S)n1/N=C/c1cccc2cccnc12", "> 100 µM"],
  ["Cc1onc(-c2ccccc2)c1C(=O)N/N=C/c1cc(Cl)cc(Cl)c1O", "10.5 µM"],
  ["Cc1cc(S(=O)(=O)NC2=NCc3nc4ccccc4n32)c(S)cc1Cl", "> 100 µM"],
  ["O=C1/C(=C/c2cccc(Cl)c2)CCCc2ccccc21", "94.5 µM"],
  ["CC(C)CC(NC(=O)C(C)(CI)Cc1ccccc1)C(=O)Nc1ccccc1 (stereo not given)", "> 100 µM"],
  ["CN1C(=O)C2(C)SC1(c1ccccc1)C1C(=O)N(c3ccccc3)C(=O)C12 (stereo not given)", "> 100 µM"],
  ["COc1cc2c(cc1OC)OC(c1c(OC)ccc(OC)c1O)CC2 (stereo not given)", "> 100 µM"]
]}
